The values you see were collected from ChEMBL document CHEMBL3351696.

Assay: physchem
Conditions: 1:1 CH3CN/H2O
measured quantity: remaining at 144 h (%)
All answers are understood in %, so give the number only.

INSERT INTO assay_data (compound_structure, measured_quantity, unit_symbol, reported_value) VALUES
  ('CC(C)(C)C[C@@H]1N[C@@H](C(=O)NCCN2CCOCC2)[C@H](c2cccc(Cl)c2F)[C@]12C(=O)Nc1cc(Cl)ccc12', 'remaining at 144 h', '%', 82.7);

// `C[C@]1(O)C[C@@H](NC(=O)[C@@H]2NC3(CCCCC3)[C@@]3(C(=O)Nc4cc(Cl)ccc43)[C@H]2c2cccc(Cl)c2F)C1` : remaining at 144 h value = 100

Per the record, `CC(C)(C)C[C@@H]1N[C@@H](C(=O)N[C@H]2C[C@@](C)(O)C2)[C@H](c2cccc(Cl)c2F)[C@]12C(=O)Nc1cc(Cl)ccc12` has remaining at 144 h of 97.7

Sample `CC(C)(C)C[C@@H]1N[C@@H](C(=O)NCC[C@H](O)CO)[C@H](c2cccc(Cl)c2F)[C@]12C(=O)Nc1cc(Cl)ccc12` ; remaining at 144 h observed: 91.4

Record `O=C(NCC[C@H](O)CO)[C@@H]1NC2(CCCCC2)[C@@]2(C(=O)Nc3cc(Cl)ccc32)[C@H]1c1cccc(Cl)c1F` , field remaining at 144 h: 100

remaining at 144 h for `O=C(NCCN1CCOCC1)[C@@H]1NC2(CCCCC2)[C@@]2(C(=O)Nc3cc(Cl)ccc32)[C@H]1c1cccc(Cl)c1F` is 99.2

====

Assay: cells
Conditions: Homo sapiens, HCT-116
pIC50: −log10 of the molar value.
measured quantity: pIC50

INSERT INTO results (compound_structure, reported_value) VALUES
  ('O=C(N[C@H]1CC[C@H](O)CC1)[C@@H]1NC2(CCCCC2)[C@@]2(C(=O)Nc3cc(Cl)ccc32)[C@H]1c1cccc(Cl)c1F', '< 5.00');

// next entry
Summary for this compound, `O=C(O)c1ccc(NC(=O)[C@@H]2NC3(CCCCC3)[C@@]3(C(=O)Nc4cc(Cl)ccc43)[C@H]2c2cccc(Cl)c2F)cc1` : pIC50 is < 5.00

====

Test: physchem
Details: 1:1 CH3CN/H2O
measured quantity: remaining at 72 h (%)
Give a bare numeral; the unit % is implied.

Answered cases to consult:
INSERT INTO assay_data (compound_structure, measured_quantity, reported_value) VALUES
  ('C[C@]1(O)C[C@@H](NC(=O)[C@@H]2NC3(CCCCC3)[C@@]3(C(=O)Nc4cc(Cl)ccc43)[C@H]2c2cccc(Cl)c2F)C1', 'remaining at 72 h', 100),
  ('CC(C)(C)C[C@@H]1N[C@@H](C(=O)N[C@H]2C[C@@](C)(O)C2)[C@H](c2cccc(Cl)c2F)[C@]12C(=O)Nc1cc(Cl)ccc12', 'remaining at 72 h', 98.6),
  ('O=C(NCCN1CCOCC1)[C@@H]1NC2(CCCCC2)[C@@]2(C(=O)Nc3cc(Cl)ccc32)[C@H]1c1cccc(Cl)c1F', 'remaining at 72 h', 99.6),
  ('CC(C)(C)C[C@@H]1N[C@@H](C(=O)NCCN2CCOCC2)[C@H](c2cccc(Cl)c2F)[C@]12C(=O)Nc1cc(Cl)ccc12', 'remaining at 72 h', 86.9),
  ('O=C(NCC[C@H](O)CO)[C@@H]1NC2(CCCCC2)[C@@]2(C(=O)Nc3cc(Cl)ccc32)[C@H]1c1cccc(Cl)c1F', 'remaining at 72 h', 100);

# evaluate next
Reported remaining at 72 h for `CC(C)(C)C[C@@H]1N[C@@H](C(=O)NCC[C@H](O)CO)[C@H](c2cccc(Cl)c2F)[C@]12C(=O)Nc1cc(Cl)ccc12` was 95.7
